The reported numbers originate from patent US20150274820A1.

Catalogue of binders with associated koff
# test-system: T1, recombinant human VEGF165 (human, UniProt P15692 27-191)
# T1 construct: mature; Isoform VEGF165 of the entry; also called hVEGF165; hVEGF
# T1 sequence (P15692 other isoform, or with tags, fused parts or gaps): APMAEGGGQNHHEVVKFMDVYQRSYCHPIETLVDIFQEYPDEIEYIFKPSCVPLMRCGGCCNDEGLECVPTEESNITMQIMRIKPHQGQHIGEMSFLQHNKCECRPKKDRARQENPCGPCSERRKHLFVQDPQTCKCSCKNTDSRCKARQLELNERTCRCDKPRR
# assay-comment: Biacore SPR, VEGF immobilized, pH 7.4
Give a bare numeral; the unit s⁻¹ is implied.

Prompt: Which koff value is on record for 511-max (scFv, also called ESBA802) scFv: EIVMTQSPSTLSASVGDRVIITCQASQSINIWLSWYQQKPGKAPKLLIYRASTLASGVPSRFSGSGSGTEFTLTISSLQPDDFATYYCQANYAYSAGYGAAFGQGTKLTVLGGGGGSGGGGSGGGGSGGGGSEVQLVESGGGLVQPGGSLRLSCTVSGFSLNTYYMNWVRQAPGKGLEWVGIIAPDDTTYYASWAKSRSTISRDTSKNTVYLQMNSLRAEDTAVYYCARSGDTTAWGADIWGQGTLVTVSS ?
Completion: 6.85e-05

Turning now to a further binder:
Prompt: Quick check: koff of 509-maxII (scFv, VH tied by name; also called Protein Nr) scFv: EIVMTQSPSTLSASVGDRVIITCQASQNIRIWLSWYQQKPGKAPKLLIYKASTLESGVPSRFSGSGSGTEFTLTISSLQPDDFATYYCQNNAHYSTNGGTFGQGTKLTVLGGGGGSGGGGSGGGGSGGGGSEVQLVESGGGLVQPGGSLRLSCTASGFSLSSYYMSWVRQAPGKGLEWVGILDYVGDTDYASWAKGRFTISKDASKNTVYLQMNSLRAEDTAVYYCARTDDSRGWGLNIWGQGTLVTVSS ?
Completion: 0.0198
